Items are presented alongside their recorded viability, T/C.
# Tested on: 922993-354-T-J3-PDC complex spheroid viability;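 also: spheroids exposed to the agents for one week; 100% = DMSO vehicle control wells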
# PROTOCOL_DESCRIPTION: Anticancer human tumor 922993-354-T-J3-PDC patient-derived endometrial carcinoma cell line growth inhibition [POLQ]
# CONDITION_DETAILS: second compound 0.316 µM; first compound 10 µM; hits give low values

# count of solved cases: 4
>  <MOLECULE>
Nc1ccn(C2OC(CO)C(O)C2(F)F)c(=O)n1 (stereo not given) + COC1C(OC(N)=O)C(O)C(Oc2ccc3c(O)c(NC(=O)c4ccc(O)c(CC=C(C)C)c4)c(=O)oc3c2C)OC1(C)C

>  <viability, T/C>
9.46%

$$$$
>  <MOLECULE>
CC1COCCN1c1cc(-c2ccnn2C)c2ccnc(-c3ccn[nH]3)c2n1 (stereo not given) + COC1C(OC(N)=O)C(O)C(Oc2ccc3c(O)c(NC(=O)c4ccc(O)c(CC=C(C)C)c4)c(=O)oc3c2C)OC1(C)C

>  <viability, T/C>
11.2%

$$$$
>  <MOLECULE>
COc1ccc([C@@H](O)c2cc(-c3ncnc4cc(N5CCOCC5)ccc34)c(F)cc2Cl)nn1 + Nc1ccc(C#CCN(C(=O)Cc2ncc(C(F)(F)F)cc2C(F)(F)F)c2ccc(F)cc2)nn1

>  <viability, T/C>
74.9%

$$$$
>  <MOLECULE>
O=C(c1cc(Cc2n[nH]c(=O)c3ccccc23)ccc1F)N1CCN(C(=O)C2CC2)CC1 + Nc1ccc(C#CCN(C(=O)Cc2ncc(C(F)(F)F)cc2C(F)(F)F)c2ccc(F)cc2)nn1

>  <viability, T/C>
97.1%

$$$$

Let us examine a further case.
Incoming: What reported viability, T/C corresponds to O=c1[nH]cc(F)c(=O)[nH]1 + Nc1ccc(C#CCN(C(=O)Cc2ncc(C(F)(F)F)cc2C(F)(F)F)c2ccc(F)cc2)nn1 on 922993-354-T-J3-PDC complex spheroid viability?
Outgoing: 23.8%
